# protein stability index values compiled below
B1: GFOD1 (parent)
chain: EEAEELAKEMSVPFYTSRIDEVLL

Variants of: B1
Assay: protein stability index of a GFP-peptide fusion (GPS, HEK-293T) (PSI 1-6); higher = more stable;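 further: lentivirally expressed fusions sorted by FACS into six bins by GFP to DsRed ratio, PSI derived from sequencing read proportions per bin multiplied by bin number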
Conditions: c terminus: a fixed tail appended
ATTRIBUTE MEASURED: protein stability index

mutation_label=K8S recorded_result=2.89
mutation_label=E2L recorded_result=2.76
mutation_label=D20W recorded_result=2.59
mutation_label=V12H recorded_result=3.03
mutation_label=K8T recorded_result=3.89
mutation_label=R18K recorded_result=4.26
mutation_label=M10W recorded_result=4.5
mutation_label=S11C recorded_result=3.36
mutation_label=L6M recorded_result=4.01
mutation_label=L23I recorded_result=3.66
mutation_label=M10G recorded_result=4.22
